Test system: PC-3 prostate
Assay: NCI-60 one-dose screen, 48 h
Conditions: 10 µM unless noted
About 83,000 compounds went through this panel and 20% of them were active in at least one assay; those are over-represented in the sample as a whole. Calls of active or inactive are those of the source. Rule for the calls: active = growth percent below 10; inactive = the rest.
Can you answer with just one of these options? active, inactive

Example cases with answers are listed next.
> print(dat)
                                   molecule  label.class
1       C=C[C@@H]1C[C@@H]2Cc3cc(Cl)ccc3N1O2     inactive
2  COc1cc(-c2nc(N=Nc3c(O)[nH]c4ccc(Br)cc34)[nH]c(=O)c2C#N)cc(OC)c1OC     inactive
3  O=C(Nc1ccncc1)C(=O)c1cn(S(=O)(=O)c2ccc(Br)cc2)c2ccccc12     inactive

Outcome logged for `CC(C)OC(=O)N1CCOCC1` in this assay:
inactive

Outcome logged for `O=C(CN1CCN(c2cc3c(cc2F)c(=O)c(C(=O)N/N=C/c2ccccc2O)cn3C2CC2)CC1)N/N=C\c1ccccc1O` in this assay:
inactive

Outcome logged for `Cc1nc2ncccc2nc1Nc1ccc(S(=O)(=O)Nc2ccccn2)cc1` in this assay:
inactive

Outcome logged for `CCN(CC)c1ccc(N=O)cc1` in this assay:
inactive

Outcome logged for C=C1CCC2C3(C)COC(c4ccc(N(C)C)cc4)OC3CCC2(C)C1C/C=C1/C(=O)OCC1O (stereo unspecified) in this assay:
active

Outcome logged for `COc1ccc(S(=O)(=O)NCCCNc2nccc(-c3c(-c4cccc([N+](=O)[O-])c4)nc4sccn34)n2)cc1` in this assay:
inactive

Outcome logged for `CC(=O)Nc1ccc(/C=C/C(=O)c2ccccc2)cc1` in this assay:
inactive

Outcome logged for `Oc1ccc(Cl)cc1-c1cc(-c2ccc(F)cc2)n[nH]1` in this assay:
inactive

Outcome logged for `COc1ccc(CCNC2=CC(=O)CCC2)cc1OC` in this assay:
inactive

Outcome logged for `Clc1ccccc1-c1nc2ccccc2[nH]1` in this assay:
inactive

Outcome logged for CSc1nc2c(c(=O)[nH]1)C(c1ccc(C)cc1)C=C(C(=O)O)N2 (stereo unspecified) in this assay:
inactive

Outcome logged for `Cc1cc(C2=NNC(=O)Cc3cc4c(cc32)OCCO4)cc(C)c1N` in this assay:
inactive

Outcome logged for `COc1ccc(/C=C\c2cc(OC)c(OC)c(OC)c2)cc1OC(=O)c1cccc(Cn2cc(CCOC(=O)c3cccc(Cn4nnc5c4C(=O)c4ccccc4C5=O)c3)nn2)c1` in this assay:
inactive

Outcome logged for `COC(=O)c1cc(=O)nc(N/N=C/c2ccco2)s1` in this assay:
inactive

Outcome logged for `C=C1CCC[C@]2(C)CCC[C@H](C)[C@@H](OC(C)=O)[C@@H]3OC(=O)C(=C)[C@@H]3C[C@H]1O2` in this assay:
inactive

Outcome logged for `S=C(S)NCCc1c[nH]c2ccccc12` in this assay:
inactive

Outcome logged for `Cc1cccc(/C=N/Nc2cc(C)c3cccc(C)c3n2)n1` in this assay:
inactive

Outcome logged for CC12CCCC(CC(=O)c3[nH]c4ccccc4c31)C2 (stereo unspecified) in this assay:
inactive

----------
Tested on: A498 renal
Assay: NCI-60 one-dose screen, 48 h
Details: 10 µM unless noted
This is part of a sample that, as a whole, favours compounds with a hit. Of some 83,000 tested, about 20% had one in any assay. Activity calls are given as the source filed them. Rule for the calls: active = growth percent below 10; inactive = the rest.
Can you answer with just one of these options? active, inactive

Example cases with answers are listed next.
> print(dat)
                                   compound  label.class
1  CN(C)c1cccc2c(S(=O)(=O)/N=C(\N)Nc3nc4ccccc4s3)cccc12     inactive
2    COC(=O)c1cc2cc(-c3ccc(OC)cc3)cnc2[nH]1     inactive
3  COc1cccc(-c2nc3sccn3c2-c2ccnc(NCCCNS(=O)(=O)c3ccc(F)cc3)c2)c1     inactive
4                 CCN(CC)CCOc1ccc(Cl)c(C)c1     inactive
5  COc1cc(-c2nn(C(=O)NS(=O)(=O)c3ccccc3)cc2-c2ccncc2)ccc1Cl     inactive

Outcome logged for `CN1CCN(Cc2ccc(NC(=O)c3nc4ccc5[nH]ncc5c4c4c3CCC4)cc2C(F)(F)F)CC1` in this assay:
inactive

Outcome logged for CC12CCC3C4(C)COC(c5ccco5)OC4CCC3(C)C1CC(C1=CCOC1=O)O2 (configuration not stated) in this assay:
inactive

Outcome logged for `O=C(/C=C\c1cccc([N+](=O)[O-])c1)/C=C/c1cccc([N+](=O)[O-])c1` in this assay:
inactive

Outcome logged for `O=C1C(Cl)=C(Nc2ccccn2)C(=O)c2ccccc21` in this assay:
inactive

Outcome logged for `O=S(=O)(NCCNc1nccc(-c2c(-c3ccc(F)cc3)nc3sccn23)n1)c1ccc(F)cc1` in this assay:
inactive
